# VAL norm to TPP-9809 (1 to 5 ratio) annotations
System Tested: T1, Human Semaphorin3A-Fc (R&D Systems), TPP-13211 (human)
T1 construct: R&D Systems 1250-S3; also called recombinant human Sema3A-Fc chimera
T1 sequence (chain, as listed by the source limits assumed): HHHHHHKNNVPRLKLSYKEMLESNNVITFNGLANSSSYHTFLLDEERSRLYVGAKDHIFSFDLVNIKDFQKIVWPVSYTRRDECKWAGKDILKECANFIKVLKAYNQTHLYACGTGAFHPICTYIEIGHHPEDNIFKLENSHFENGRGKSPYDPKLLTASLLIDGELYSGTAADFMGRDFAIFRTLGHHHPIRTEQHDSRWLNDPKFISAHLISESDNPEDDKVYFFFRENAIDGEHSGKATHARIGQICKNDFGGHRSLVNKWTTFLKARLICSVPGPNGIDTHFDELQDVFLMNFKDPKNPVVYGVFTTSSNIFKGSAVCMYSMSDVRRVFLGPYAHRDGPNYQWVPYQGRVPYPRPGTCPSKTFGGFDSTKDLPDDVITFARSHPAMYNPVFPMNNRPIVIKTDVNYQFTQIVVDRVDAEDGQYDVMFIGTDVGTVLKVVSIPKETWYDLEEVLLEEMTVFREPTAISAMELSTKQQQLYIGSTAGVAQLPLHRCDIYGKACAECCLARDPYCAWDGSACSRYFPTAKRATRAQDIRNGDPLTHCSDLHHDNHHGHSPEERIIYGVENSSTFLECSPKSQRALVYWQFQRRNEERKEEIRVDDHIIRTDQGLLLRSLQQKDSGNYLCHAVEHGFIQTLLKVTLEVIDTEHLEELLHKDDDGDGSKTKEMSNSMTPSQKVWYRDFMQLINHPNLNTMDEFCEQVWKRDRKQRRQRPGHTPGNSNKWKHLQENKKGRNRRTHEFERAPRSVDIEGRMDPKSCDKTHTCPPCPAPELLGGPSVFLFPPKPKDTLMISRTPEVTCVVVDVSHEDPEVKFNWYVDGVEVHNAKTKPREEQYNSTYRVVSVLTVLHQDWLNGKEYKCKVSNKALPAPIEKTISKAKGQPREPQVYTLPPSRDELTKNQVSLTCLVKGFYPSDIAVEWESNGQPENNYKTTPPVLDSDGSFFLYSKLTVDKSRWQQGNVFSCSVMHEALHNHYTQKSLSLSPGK
Experiment: competition ELISA on coated TPP-13211, competitor biotinylated TPP-15374
Note: the reply should be a number with no unit written.

Binder | Observed Result
TPP-25064 (antibody, human IgG1, lambda, V domains shown) VH: EVQLLESGGGLVQPGGSLRLSCAASGFTFDSYEMNWVRQAPGKGLEWVSGISWNSGWIDYADSVKGRFTISRDNSKNTLYLQMNSLRAEDTAVYYCARSGYSSSWFDPDFDYWGQGTLVTVSS VL: QSVLTQPPSVSGAPGQRVTISCTGSSSDIGAGYDVHWYQQLPGTAPKLLIYGNSNRPSGVPDRFSGSKSGTSASLAITGLQAEDEADYYCSSYAGPNPYVVFGGGTKLTVLG | 0.19

The record that follows has no VAL norm to TPP-9809 (1 to 5 ratio) shown yet.
Q. Look up VAL norm to TPP-9809 (1 to 5 ratio) for this binder: TPP-25257 (antibody, human IgG1, lambda, V domains shown) VH: EVQLLESGGGLVQPGGSLRLSCAASGFDFDSYEMNWVRQAPGKGLEWVSGISWNSGWIDYADSVKGRFTISRDNSKNTLYLQMNSLRAEDTAVYYCARSGYSSSWFDPDFDYWGQGTLVTVSS VL: QSVLTQPPSVSGAPGQRVTISCTGSSSNIGAGYDVHWYQQLPGTAPKLLIYGNSNRPSGVPDRFSGSKSGTSASLAITGLQAEDEADYYCQSYAGPNPYVVFGGGTKLTVLG
A. 0.18
